- Condition set: buffer; pH 7.4; 200.0 µM
Give solubility kinetic for every item shown.

Problem: What solubility kinetic value was documented for this compound, Oc1ccc(NCc2cccs2)cc1 ?
Result: 26.5 µg/mL

Problem: Query Cn1ncc([N+](=O)[O-])c1C(=O)NC1CCCCC1 next
Result: > 37.8 µg/mL

Problem: Query Cc1ccc2c(ccc(=S)n2C)c1 next
Result: 24.1 µg/mL

Problem: Query O=S(=O)(c1ccc(=S)[nH]c1)N1CCCC1 next
Result: > 36.6 µg/mL

Problem: Query O=C(NCc1ccccc1F)c1cccc(S(=O)(=O)N2CCCCC2)c1 next
Result: 5.8 µg/mL

Problem: Query CC(=O)Nc1ccccc1C(=O)C(=O)NCCc1ccccc1 next
Result: 40.5 µg/mL

Problem: Query CC(C)C(CCNC1CCN(C)CC1)c1ccc(Cl)cc1 (stereo not drawn) next
Result: 33.5 µg/mL

Problem: Query Cc1ccc(CCC(=O)Nc2ccc(CC(=O)O)cc2)o1 next
Result: > 43.1 µg/mL

Problem: Query COc1cccc(C2Nc3cccc4cccc(c34)N2)c1 next
Result: 11.5 µg/mL

Problem: Query CCn1cc(S(=O)(=O)Nc2ccc(C)c(Cl)c2)cn1 next
Result: > 45 µg/mL

Problem: Query O=C(NCCNC(=O)c1ccccc1Cl)c1ccco1 next
Result: 39.7 µg/mL

Problem: Query COc1ccc(NC(=O)CCc2nc3ccccc3[nH]2)cc1 next
Result: 5.3 µg/mL

Problem: Query Cc1cc(C)n2cc(CSc3ccc(Cl)cc3)nc2n1 next
Result: > 45.6 µg/mL

###

- Condition set: buffer; pH 7.4; 200.0 µM
Give solubility kinetic for every item shown.

Problem: What solubility kinetic value was documented for this compound, Cc1ccc(S(C)(=O)=NS(=O)(=O)c2cccc3nsnc23)cc1 (centres undefined) ?
Result: > 0.0551 mg/mL

Problem: Query O=C(Cc1c[nH]c2ccccc12)NCc1ccccc1F next
Result: 0.0423 mg/mL

Problem: Query CC1C(=O)NC(=O)C1c1ccccc1 (centres undefined) next
Result: > 0.0284 mg/mL

Problem: Query NC(=O)Nc1ccccc1C(=O)Nc1ccc2ccccc2c1 next
Result: 0.0196 mg/mL

Problem: Query CCN1C(=O)CCC(C(=O)O)C1c1ccc(OC)cc1 (centres undefined) next
Result: > 0.0416 mg/mL

Problem: Query C=CCn1c([O-])c(C(C)=O)c(=O)[nH]c1=O.C[NH+](C)C next
Result: > 0.0404 mg/mL

Problem: Query Cc1ccnc(S(=O)(=O)Cc2ccc([N+](=O)[O-])cc2)n1 next
Result: > 0.044 mg/mL

Problem: Query COc1ccc2ccccc2c1-c1csc(N)n1 next
Result: > 0.0384 mg/mL

Problem: Query COc1ccc(NS(=O)(=O)c2cc(NC(=O)c3ccc(Cl)cc3)ccc2N2CCOCC2)cc1 next
Result: 0.0015 mg/mL

Problem: Query CCC(=O)c1ccc(OC(=O)N2CCOCC2)cc1 next
Result: > 0.0395 mg/mL

Problem: Query O=S(=O)(c1ccc(F)c(F)c1)N1CCC2(CC1)OCCO2 next
Result: > 0.0479 mg/mL

Problem: Query Cc1ccc(N(Cc2cc(=O)[nH]c3ccccc23)C(=O)C(C)C)c(C)c1 next
Result: 0.0177 mg/mL

Problem: Query CS(=O)(=O)c1cccc(C(=O)OCC(=O)NC(=O)Nc2ccccc2F)c1 next
Result: 0.0052 mg/mL

Problem: Query COC(=O)c1cc(OC)c(OC)cc1N1C(=O)CCCC1=O next
Result: > 0.0461 mg/mL

Problem: Query CC(=O)Nc1nc(C)c(Oc2cccc(C(F)(F)F)c2)c(=O)[nH]1 next
Result: 0.0451 mg/mL

Problem: Query COc1ccc(CC(=O)NCCc2ccc(OC)c(OC)c2)cc1 next
Result: > 0.0494 mg/mL

Problem: Query O=C1CSC(=Nc2cccc([N+](=O)[O-])c2)N1 next
Result: > 0.0356 mg/mL

Problem: Query N#C/C(=C(O)\C=C\c1ccccc1)c1nc2ccccc2[nH]1 next
Result: < 0.0002 mg/mL

Problem: Query Cc1ccc(C(=O)CNc2ccccc2)cc1 next
Result: 0.0041 mg/mL

Problem: Query O=C(CN1C(=O)NC(Cc2c[nH]c3ccccc23)C1=O)Nc1ccccc1C(F)(F)F (centres undefined) next
Result: > 0.0646 mg/mL

Problem: Query COc1ccc(NC(=O)c2ccc3ccccc3c2)cc1 next
Result: < 0.0006 mg/mL

Problem: Query c1ccc(-n2cc(CN3CCCC3)c(-c3ccc4c(c3)OCO4)n2)cc1 next
Result: > 0.0521 mg/mL

Problem: Query Cc1ccc(OCCCn2ccnc2)c(Br)c1 next
Result: 0.0308 mg/mL

Problem: Query CCCCNC(=O)C1CC(=O)N(CCc2ccccc2)C1 (centres undefined) next
Result: > 0.0433 mg/mL
